# assayed-system: IRAK4 (Homo sapiens)
# test-name: 2-hour 10 μM ATP Biochemical Assay (MesoScale Detection format; IRAK4 phosphorylation of biotin labeled IRAK1 activation loop peptide)
# run-conditions: 0.1 nM IRAK4
pIC50: −log10 of the molar value.
property-label: pIC50

CCOc1cc2nc(C[C@H]3CCOC3)cn2cc1C(=O)Nc1cccc(C(F)F)n1 (single isomer, unassigned); 9.00

(1) COc1cc2nc(C3CCOCC3)cn2cc1C(=O)Nc1cccc(F)c1
(2) COc1cc2nc(C3CCOCC3)cn2cc1C(=O)Nc1cc(F)c(F)c(F)c1
(3) COc1cc2nc(C3CCOCC3)cn2cc1C(=O)Nc1cc(Cl)c(F)c(Cl)c1
Arrange the 3 compounds by rising pIC50, starting with the smallest. // respond by listing labels in the order requested
3, 2, 1
(3: 6.10, 2: 6.88, 1: 7.62)

###

# assayed-system: IRAK4 (Homo sapiens)
# test-name: biochemical
property-label: IC50 (nM)

Solved entries (count: 2):
COc1cccc(NC(=O)c2cn3cc(C4CC4)nc3cc2OC2CCC2)n1; 5.7
CC(C)Oc1nc2nc(C34COC(C)(C3)C4)cn2cc1C(=O)Nc1cccc(OC(F)(F)F)n1; 1.2

(a) COc1cccc(NC(=O)c2cn3cc(C4CC4)nc3cc2OC2CCCC2)n1
(b) CC(Oc1cc2nc(C34COC(C)(C3)C4)cn2cc1C(=O)Nc1cccc(C(F)F)n1)C(F)(F)F (single isomer, unassigned) [Example 619]
(c) CCOc1nc(C(=O)Nc2cccc(C(F)F)c2)cn2cc(C34COC(C)(C3)C4)nc12
(d) COc1ncccc1NC(=O)c1cn2cc(C34COC(C)(C3)C4)nc2cc1OC1CCC1
(e) CC12CCC(c3cn4cc(C(=O)Nc5cccnc5OC(F)F)c(OC5CCC5)cc4n3)(CO1)C2 (centres unmarked)
Put these in order: smallest IC50 first, largest last. Give your ranking as a list of the labels in the requested order.
b, d, e, c, a

###

# assayed-system: IRAK4 (Homo sapiens)
# test-name: biochemical
pIC50: −log10 of the molar value.
property-label: pIC50

(A) CC[C@H](C)Oc1cc2nc(C34COC(C)(C3)C4)cn2cc1C(=O)Nc1cnn2cc(C)cnc12 [Example 559]
(B) COc1nc(C(=O)Nc2cccc(C(F)(F)F)n2)cn2cc(C[C@H]3CCOC3)nc12 (single isomer, unassigned) [Example 71]
(C) COc1nc(C(=O)Nc2ccn(C)n2)cn2cc(C3CCOCC3)nc12 [Example 88]
Rank entries according to their pIC50, from the largest number down. Reply with the labels, ordered as the question asks.
A, B, C
(A: 9.15, B: 7.51, C: 7.29)

###

# assayed-system: IRAK4 (Homo sapiens)
# Sequence (Q9NWZ3 1-460): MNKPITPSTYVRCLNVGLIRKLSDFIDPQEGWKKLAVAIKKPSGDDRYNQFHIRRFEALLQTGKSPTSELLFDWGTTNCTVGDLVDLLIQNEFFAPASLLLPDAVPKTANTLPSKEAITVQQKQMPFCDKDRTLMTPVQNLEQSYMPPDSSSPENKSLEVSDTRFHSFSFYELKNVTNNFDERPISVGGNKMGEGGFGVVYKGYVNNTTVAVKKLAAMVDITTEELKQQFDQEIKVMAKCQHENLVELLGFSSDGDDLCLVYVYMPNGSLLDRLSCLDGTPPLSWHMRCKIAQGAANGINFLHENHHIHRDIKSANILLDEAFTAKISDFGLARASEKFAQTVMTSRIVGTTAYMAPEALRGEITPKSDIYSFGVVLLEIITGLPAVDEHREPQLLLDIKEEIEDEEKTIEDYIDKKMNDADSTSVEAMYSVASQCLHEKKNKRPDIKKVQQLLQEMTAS
# test-name: 2-hour 10 μM ATP Biochemical Assay (MesoScale Detection format; IRAK4 phosphorylation of biotin labeled IRAK1 activation loop peptide)
# run-conditions: 0.1 nM IRAK4
pIC50: −log10 of the molar value.
property-label: pIC50

Known pIC50 results, listed for orientation:
COc1cc2nc(C3CCOCC3)cn2cc1C(=O)N[C@@H]1COC[C@H]1F (racemic); 6.13
CCc1ccccc1NC(=O)c1cn2cc(C3CCOCC3)nc2cc1OC; 7.14
COc1cc2nc(C3CCOCC3)cn2cc1C(=O)NC1CC(OC)c2ccccc21 (centres unmarked); 6.03

(a) COc1cc(C(=O)Nc2cccc(C(F)(F)F)n2)cn2cc(CC3CCOC3)nc12 (centres unmarked)
(b) COc1cc2nc(C3CCOCC3)cn2cc1C(=O)Nc1cc(F)cc(F)c1F
(c) O=C(Nc1ccn(C(F)F)n1)c1ccc2nc(C3CCOCC3)cn2c1
Sort the compounds on pIC50; start with the lowest figure. Arrange the labels as the request states and list them.
c, b, a

(a) COc1cc2nc(C3CCOCC3)cn2cc1C(=O)Nc1cccc(C(F)(F)CF)c1
(b) COc1cc2nc(C3CCOCC3)cn2cc1C(=O)Nc1cnsc1
When a and b are compared, which has the higher number for pIC50? Identify your selection by its label.
a
(a: 7.82, b: 7.19)

(1) COc1cc2nc(C34CC(C#N)(C3)C4)cn2cc1C(=O)Nc1cccc(C(F)(F)F)n1
(2) COc1cc2nc(C3CCOCC3)cn2cc1C(=O)Nc1cc(F)ccn1
(3) CCOc1cc2nc(C(C)(C)C#N)cn2cc1C(=O)Nc1cccc(C(F)F)n1
(4) COc1cc2nc(C3CCOCC3)cn2cc1C(=O)NC1C2CCOC2C12CCC2 (centres unmarked)
With regard to pIC50, arrange the entries in ascending order, please. Use the labels to give the ranking in the order requested.
4, 2, 1, 3

(a) COc1cc2nc(C3CCOC3)cn2cc1C(=O)Nc1cccc(C(F)(F)F)n1 (centres unmarked)
(b) COc1cccc(NC(=O)c2cn3cc(C4C5COCC54)nc3cc2OC)n1 (centres unmarked)
Lab note: check whether a or b has the lower measured pIC50. Respond using the label that marks the chosen record.
a
(a: 7.92, b: 8.30)

(P) COc1cc2nc(CC3CCOCC3)cn2cc1C(=O)Nc1cccc(C(F)(F)F)n1
(Q) COc1cc2nc(C3CCOCC3)cn2cc1C(=O)Nc1cc(C)cc(F)c1
(R) COc1cc2nc(CC3CCOC3)cn2cc1C(=O)Nc1cccc(C(F)(F)F)n1 (centres unmarked)
(S) COc1cc2nc(C3CCOCC3)cn2cc1C(=O)Nc1nc(C)c(Cl)s1
Highest pIC50 first, then in falling order down to the smallest. The reply should contain the labels ordered as requested.
R, P, Q, S

(1) COc1cc2nc(C3CCOCC3)cn2cc1C(=O)Nc1scnc1C(C)C
(2) COc1cc(C(=O)Nc2cccc(C(F)(F)F)n2)cn2cc(C3CCOCC3)nc12
Select the item whose pIC50 value is smaller, choosing between 1 and 2 . Label of pick, please.
1
(1: 7.64, 2: 8.22)

(I) COc1cc2nc(C3CCOCC3)cn2cc1C(=O)Nc1cc(F)cc(F)c1
(II) COc1cc2nc(C3CCOCC3)cn2cc1C(=O)Nc1cccc(F)c1Cl
Could you tell me which of I and II has the lower pIC50 reading? Your answer should be the label attached to the chosen record.
I
(I: 7.64, II: 8.40)

(A) COc1cccc(NC(=O)c2cn3cc(C(C)(C)CC#N)nc3cc2OC)n1
(B) COc1cc2nc(C3CCOCC3)cn2cc1C(=O)N[C@@H]1CCC[C@H](C2CC2)C1 (relative stereo)
Parameter metric = pIC50. Return the lower-valued option from A and B . In your reply, give the label of the chosen option.
B

Entry source: patent US20230087118A1
